# study_system: Fatty acid synthase (Homo sapiens, UniProt P49327)
# Sequence (P49327 whole entry): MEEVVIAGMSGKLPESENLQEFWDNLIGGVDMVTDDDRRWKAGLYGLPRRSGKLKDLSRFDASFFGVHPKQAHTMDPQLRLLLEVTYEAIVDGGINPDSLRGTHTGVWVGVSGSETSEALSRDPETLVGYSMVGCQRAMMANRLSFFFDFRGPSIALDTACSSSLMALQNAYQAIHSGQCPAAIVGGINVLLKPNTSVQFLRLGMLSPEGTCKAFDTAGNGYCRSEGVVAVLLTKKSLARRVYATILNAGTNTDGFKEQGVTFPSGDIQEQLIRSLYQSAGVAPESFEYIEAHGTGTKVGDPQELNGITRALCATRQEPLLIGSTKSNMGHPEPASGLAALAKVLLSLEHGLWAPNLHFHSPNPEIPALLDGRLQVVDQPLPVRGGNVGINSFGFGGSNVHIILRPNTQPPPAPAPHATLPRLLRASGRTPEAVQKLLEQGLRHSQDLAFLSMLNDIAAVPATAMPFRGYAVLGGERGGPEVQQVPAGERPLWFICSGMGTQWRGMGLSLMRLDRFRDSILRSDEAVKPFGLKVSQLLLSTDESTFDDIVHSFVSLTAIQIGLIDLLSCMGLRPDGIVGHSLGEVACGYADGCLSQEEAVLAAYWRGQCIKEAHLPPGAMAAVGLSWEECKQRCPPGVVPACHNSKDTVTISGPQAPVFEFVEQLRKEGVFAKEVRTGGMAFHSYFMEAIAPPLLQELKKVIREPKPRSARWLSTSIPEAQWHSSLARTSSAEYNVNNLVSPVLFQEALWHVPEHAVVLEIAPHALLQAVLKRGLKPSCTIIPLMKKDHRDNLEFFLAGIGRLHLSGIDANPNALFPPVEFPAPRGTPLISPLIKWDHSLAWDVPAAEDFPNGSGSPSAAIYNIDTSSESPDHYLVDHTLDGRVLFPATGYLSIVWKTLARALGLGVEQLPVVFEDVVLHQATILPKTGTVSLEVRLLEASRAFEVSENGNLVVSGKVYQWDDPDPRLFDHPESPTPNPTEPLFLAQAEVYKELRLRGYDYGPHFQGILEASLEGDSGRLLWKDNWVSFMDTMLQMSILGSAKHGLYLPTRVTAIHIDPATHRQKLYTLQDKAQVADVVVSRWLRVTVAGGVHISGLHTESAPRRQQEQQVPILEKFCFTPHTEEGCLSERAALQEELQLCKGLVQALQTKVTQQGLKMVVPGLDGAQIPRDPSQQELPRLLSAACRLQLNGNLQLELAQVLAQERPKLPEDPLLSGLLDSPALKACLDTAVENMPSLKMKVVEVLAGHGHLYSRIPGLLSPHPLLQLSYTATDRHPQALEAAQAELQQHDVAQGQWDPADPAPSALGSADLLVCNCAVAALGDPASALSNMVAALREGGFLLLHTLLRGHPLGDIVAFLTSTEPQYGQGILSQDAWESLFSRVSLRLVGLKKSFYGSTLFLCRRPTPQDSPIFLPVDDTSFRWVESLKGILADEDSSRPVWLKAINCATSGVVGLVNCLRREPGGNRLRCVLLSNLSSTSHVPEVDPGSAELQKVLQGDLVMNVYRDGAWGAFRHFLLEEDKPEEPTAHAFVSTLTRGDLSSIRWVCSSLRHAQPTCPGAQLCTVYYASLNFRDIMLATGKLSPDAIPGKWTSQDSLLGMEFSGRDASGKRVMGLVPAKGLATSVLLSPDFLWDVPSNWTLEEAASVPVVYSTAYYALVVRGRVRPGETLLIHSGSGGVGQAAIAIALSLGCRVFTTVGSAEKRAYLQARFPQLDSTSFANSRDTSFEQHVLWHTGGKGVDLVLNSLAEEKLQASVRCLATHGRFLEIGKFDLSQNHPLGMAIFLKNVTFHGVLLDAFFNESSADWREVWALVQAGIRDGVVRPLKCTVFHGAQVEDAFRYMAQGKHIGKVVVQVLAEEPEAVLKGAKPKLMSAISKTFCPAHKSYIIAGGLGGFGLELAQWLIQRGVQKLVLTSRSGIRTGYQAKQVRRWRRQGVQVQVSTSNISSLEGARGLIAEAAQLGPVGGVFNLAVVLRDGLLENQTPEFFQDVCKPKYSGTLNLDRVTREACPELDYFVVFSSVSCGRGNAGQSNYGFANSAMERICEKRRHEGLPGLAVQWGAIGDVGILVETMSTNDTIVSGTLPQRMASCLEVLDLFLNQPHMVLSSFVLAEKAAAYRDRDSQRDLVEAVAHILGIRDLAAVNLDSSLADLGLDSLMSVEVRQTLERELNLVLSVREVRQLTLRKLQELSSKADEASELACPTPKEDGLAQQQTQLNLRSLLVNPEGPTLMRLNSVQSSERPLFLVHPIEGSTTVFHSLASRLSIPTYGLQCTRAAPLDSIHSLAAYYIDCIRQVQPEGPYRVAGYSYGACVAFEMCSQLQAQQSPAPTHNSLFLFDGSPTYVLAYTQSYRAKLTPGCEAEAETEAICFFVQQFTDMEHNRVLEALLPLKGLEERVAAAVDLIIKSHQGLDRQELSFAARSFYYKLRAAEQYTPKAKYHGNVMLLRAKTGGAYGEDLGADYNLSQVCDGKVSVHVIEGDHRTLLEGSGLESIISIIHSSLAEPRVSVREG
# protocol_details: inhibition of human FAS-TE enzyme activity – biochemical, kinetic fluorescence intensity, dose response (AID 624326);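 note: rate of fluorescence rise from hydrolysis of a fluorogenic O-methyl fluorescein ester substrate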
# Format: functional
Activity calls are given as the source filed them. Cut-off read from the data, not from the text of the source: active = IC50 of 20 µM or less and inactive = more.
Would you mind telling me the reported IC50 of each entry?

compound | IC50
COc1ccc2[nH]c3c(c2c1)CCN1C(=O)C(CC(=O)NC(C)(C)C)C[C@H](C(=O)N2CCOCC2)[C@@]31CCC1CCCC1 (stereo partly drawn) | 7.48 µM (active)
Cc1sc(N2CCN(S(=O)(=O)c3ccc4c(c3)NC(=O)CO4)CC2)nc1-c1ccccc1 | 4.04 µM (active)
O=C(NCc1ccc2c(c1)OCO2)c1ccc(C2SCC(=O)N2Cc2ccco2)cc1 (stereo not drawn) | 5.95 µM (active)
Cc1c(Cl)c([N+](=O)[O-])nn1CCCC(=O)N(Cc1ccccc1)Cc1ccccc1 | 11 µM (active)

// for each compound below, give its IC50
1. Cc1cccc(OCC(=O)N/N=C/c2cc([N+](=O)[O-])ccc2N2CCOCC2)c1
2. C[C@H](NC(=O)c1[nH]cnc1C(=O)N[C@@H](CCCCNC(=O)OC(C)(C)C)C(=O)OC(C)(C)C)C(=O)OC(C)(C)C
3. CCCCCCCCCCCCN1[C@@H](CC(=O)O)c2cc(F)ccc2S1(=O)=O
4. CCOC(=O)C1CCCN(c2nc3c(C)cccn3c(=O)c2/C=C(\C#N)C(=O)NCc2ccco2)C1 (stereo not drawn)

Found:
["8.84 µM (active)", "2.6 µM (active)", "2.62 µM (active)", "8.23 µM (active)"]
